The following compounds are listed with their measured pEC50 values.
Biological target: UniProt P11473
Sequence (P11473 whole entry): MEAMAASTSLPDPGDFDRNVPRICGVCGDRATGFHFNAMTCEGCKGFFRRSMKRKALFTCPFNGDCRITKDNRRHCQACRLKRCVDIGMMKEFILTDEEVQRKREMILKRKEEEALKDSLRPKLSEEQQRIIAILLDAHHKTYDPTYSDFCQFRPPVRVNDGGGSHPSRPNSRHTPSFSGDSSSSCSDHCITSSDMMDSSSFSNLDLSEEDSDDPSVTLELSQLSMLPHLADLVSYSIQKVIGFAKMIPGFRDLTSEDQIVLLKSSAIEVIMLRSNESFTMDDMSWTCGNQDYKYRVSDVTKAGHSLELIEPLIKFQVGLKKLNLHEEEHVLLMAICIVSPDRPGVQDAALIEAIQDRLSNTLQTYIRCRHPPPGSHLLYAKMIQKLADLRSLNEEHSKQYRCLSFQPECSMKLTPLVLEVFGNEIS
Assay: Transactivation of full length human VDR expressed in human HeLa cells assessed as increase in CYP24 transcription after 18 hrs by luciferase reporter gene assay
Type: cell-based
pEC50: −log10 of the molar value.
observable: pEC50

smiles-representation	system	observed
CCCc1cc(C(O)(CC)CC)ccc1-c1cc(CCc2ccc(CO)c(CO)c2)ccc1C	UniProt P11473	9.30
CCCc1cc(C(O)(CC)CC)ccc1-c1cc(OCc2ccc(CO)c(CO)c2)ccc1CC	UniProt P11473	8.66
CC/C(=C\C=C\C(O)(CC)CC)c1cccc(OCc2ccc(CO)c(CO)c2)c1	UniProt P11473	7.31
CC/C(=C\C=C\C(O)(C(F)(F)F)C(F)(F)F)c1cccc(CCc2ccc(CO)c(CO)c2)c1	UniProt P11473	8.55
